Target: Sphingosine 1-phosphate receptor 3 (Homo sapiens)
Sequence (Q99500 whole entry): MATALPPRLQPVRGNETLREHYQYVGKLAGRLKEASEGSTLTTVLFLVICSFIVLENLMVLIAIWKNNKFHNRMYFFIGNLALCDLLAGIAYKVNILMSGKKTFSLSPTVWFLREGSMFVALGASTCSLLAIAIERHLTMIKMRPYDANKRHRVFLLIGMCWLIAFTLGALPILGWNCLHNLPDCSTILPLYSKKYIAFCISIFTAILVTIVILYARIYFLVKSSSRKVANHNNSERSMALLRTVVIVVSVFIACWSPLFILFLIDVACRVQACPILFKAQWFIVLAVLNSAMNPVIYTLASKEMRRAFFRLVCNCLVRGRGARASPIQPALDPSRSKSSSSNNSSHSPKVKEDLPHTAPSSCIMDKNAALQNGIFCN
Test: Agonist activity at human S1P3 receptor expressed in CHOK1 cell membranes by [35S]GTPgammaS binding assay
pEC50: −log10 of the molar value.
measured_quantity: pEC50

> print(dat)
                              record.smiles  value
1  Cc1ccc(CCCC(=O)c2ccc(COC[C@@](C)(N)COP(=O)(O)O)cc2)cc1   6.70
2  Cc1ccc(CCCC(=O)c2ccc(COC[C@@](C)(N)COP(=O)(O)O)c(Cl)c2)cc1   6.66

a: Cc1ccc(CCCC(=O)c2ccc(COC[C@@](C)(N)COP(=O)(O)O)c(C)c2)cc1
b: Cc1ccc(CCCC(=O)c2cc(C)c(COC[C@@](C)(N)COP(=O)(O)O)c(C)c2)cc1
c: Cc1ccc(CCCC(=O)c2ccc(COC[C@@](C)(N)COP(=O)(O)O)c(F)c2)cc1
d: CCc1cc(C(=O)CCCc2ccc(C)cc2)ccc1COC[C@@](C)(N)COP(=O)(O)O
## Task hey, can you rank those compounds up there by pEC50? biggest number first please Order the labels as requested and list them.
## Result c, a, b, d

---

Assay: Metabolic stability in rat hepatic microsomes assessed as parent compound remaining after 30 mins at 37 degC
Assay type: ADME, microsome
Settings: liver microsomes
measured_quantity: remaining at 0.5 h (%)

> print(dat)
                              record.smiles  value
1            CCCCCCCCc1ccc(CCC(N)(CO)CO)cc1     97
2  Cc1ccc(CCCC(=O)c2ccc(COC[C@@](C)(N)COP(=O)(O)O)c(C)c2)cc1     92

---

Assay: Half life in rat at 1 mg/kg, po
Format: ADME, organism-based
Parameters: dose 1 mg/kg, route oral
Conditions: in vivo
measured_quantity: half-life (min)

> print(dat)
                              record.smiles  measured.quantity  value
1  Cc1ccc(CCCC(=O)c2ccc(COC[C@@](C)(N)COP(=O)(O)O)c(Cl)c2)cc1          half-life    276
2  Cc1ccc(CCCC(=O)c2ccc(COC[C@@](C)(N)CO)cc2)cc1.Cl          half-life    342
3  Cc1ccc(CCCC(=O)c2ccc(COC[C@@](C)(N)COP(=O)(O)O)c(C)c2)cc1          half-life    258
4  Cc1ccc(CCCC(=O)c2ccc(COC[C@@](C)(N)CO)c(C)c2)cc1.Cl          half-life    246

These measurements were taken from ChEMBL document CHEMBL3351694.
